experimental.system: Luciferin 4-monooxygenase (Photinus pyralis) (UniProt P08659)
Sequence (P08659 whole entry, looked up): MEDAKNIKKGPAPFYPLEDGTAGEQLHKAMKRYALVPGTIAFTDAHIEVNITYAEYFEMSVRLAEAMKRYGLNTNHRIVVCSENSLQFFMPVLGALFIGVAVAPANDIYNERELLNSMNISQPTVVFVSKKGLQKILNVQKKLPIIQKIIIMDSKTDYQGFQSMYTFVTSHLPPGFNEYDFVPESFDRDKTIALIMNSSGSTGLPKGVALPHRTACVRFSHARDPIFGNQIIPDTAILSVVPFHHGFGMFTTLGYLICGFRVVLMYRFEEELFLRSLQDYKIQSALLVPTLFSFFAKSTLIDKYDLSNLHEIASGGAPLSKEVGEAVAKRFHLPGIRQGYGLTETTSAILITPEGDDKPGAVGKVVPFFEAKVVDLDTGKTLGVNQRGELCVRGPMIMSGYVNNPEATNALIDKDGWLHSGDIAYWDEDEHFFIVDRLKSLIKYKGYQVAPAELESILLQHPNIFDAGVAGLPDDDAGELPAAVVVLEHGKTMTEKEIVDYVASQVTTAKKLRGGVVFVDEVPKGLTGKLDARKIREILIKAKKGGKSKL
assay.explanation: qHTS assay to identify small molecule inhibitors of firefly luciferase (AID 1224835); further: nearly all actives have a fitted effect of over 25% in size
cond: purified P. pyralis luciferase, luminescence inhibition; series mostly up to 115 µM
Records with an inconclusive call do not appear. The source made the active and inactive calls. The call rests on the fitted dose curve; in most records, active means well fitted inhibition curve with a large enough effect in the repeat runs; inconclusive means weak or mixed curves; inactive means flat fitted curve, though single readings scatter.
One label from this list, please: active, inactive

**Q:** Fill in: this test's call for "C=CCCCCCCCCOC(C)=O" is ___
**A:** inactive

**Q:** Next entry: "C=C(C)C(=O)OCCCC"
**A:** inactive

**Q:** Next entry: "CC(=O)SC[C@@H](C)C(=O)N1CCC[C@H]1C(=O)N[C@@H](Cc1ccccc1)C(=O)O"
**A:** inactive

**Q:** Next entry: "CC(C)OCCO"
**A:** inactive

**Q:** Next entry: "C=CC(=O)CC"
**A:** inactive

**Q:** Next entry: CC(C)(O)CCCC1=CCC(C=O)CC1 (configuration not stated)
**A:** inactive

**Q:** Next entry: COc1cc2nc(N3CCN(C(=O)C4CCCO4)CC3)nc(N)c2cc1OC (configuration not stated)
**A:** active

====

assay.explanation: qHTS assay to test for compound auto fluorescence at 590 nm (red) in HEK293 cell free culture (AID 720683); further: on the % scale 0 is the no-effect control and ±100 the full control effect
cond: cell-free medium autofluorescence, Ex540/Em590 red; series mostly up to 91.3 µM
The source made the active and inactive calls. Calls follow the shape of the dose curve; as a rule, active = well fitted curve in the direction sought with a large enough effect in the repeat runs; inconclusive = weak or mixed curves; inactive = flat fitted curve, though single readings scatter.
metric.name: fluorescence, % of fluorescent control

The examples below pair each entry with its known result.
molecule | fluorescence, % of fluorescent control
C/C(=N\O)c1ccc(OCC(=O)N2CCCCC2)cc1 | inactive
CCCCCCCCCCCCCCCC(=O)OC | -0.033% [at 18.6 µM] (inactive)
Cc1ccccc1C#N | inactive
CCOCCOCCOC(C)=O | inactive
C=C(C)C(=O)OCCCC | inactive
CCCOc1ccc(C(=O)OCCN(CC)CC)cc1N | inactive

Please turn your attention to the following entry.
**Q:** GET /values?readout=fluorescence, % of fluorescent control&item= "CCCCOCCCC"
**A:** inactive

====

experimental.system: Luciferin 4-monooxygenase (Photinus pyralis) (UniProt P08659)
assay.explanation: qHTS assay to identify small molecule inhibitors of firefly luciferase (AID 1224835); further: nearly all actives have a fitted effect of over 25% in size
cond: purified P. pyralis luciferase, luminescence inhibition; series mostly up to 115 µM
Inconclusive results are not listed. Activity calls are given as the source filed them. Calls come from the whole dose curve; as a rule, active = well fitted inhibition curve with a large enough effect in the repeat runs; inconclusive = weak or mixed curves; inactive = flat fitted curve, though single readings scatter.
One label from this list, please: active, inactive

**Q:** Fill in: this test's call for "O=c1[nH]c(=O)c2cn[nH]c2[nH]1" is ___
**A:** inactive

**Q:** Next entry: "CC(=O)Nc1ccc(OCCOCCOc2ccc(NC(C)=O)cc2)cc1"
**A:** inactive

**Q:** Next entry: "C=CCON/C(CCC)=C1\C(=O)CC(C)(C)C(C(=O)OC)=C1O"
**A:** inactive

**Q:** Next entry: CC(=O)/C=C/C=C1/C2CCC(C2)C1(C)C (centres undefined)
**A:** inactive

**Q:** Next entry: "CCCC(=O)CC"
**A:** inactive

**Q:** Next entry: "CC(C)(C)c1ccc(C(=O)CCCCl)cc1"
**A:** active

**Q:** Next entry: "COC(=O)c1ccc(NC(C)=O)cc1OC"
**A:** inactive

**Q:** Next entry: "CN(C)CCc1c[nH]c2ccc(CS(=O)(=O)N3CCCC3)cc12"
**A:** inactive

**Q:** Next entry: "CCN(CC)CC"
**A:** inactive

**Q:** Next entry: "C[Si](C)(C)O[Si](O)(O)O"
**A:** inactive

**Q:** Next entry: CC(C)CC(O)Cc1ccccc1 (centres undefined)
**A:** inactive

**Q:** Next entry: CCCCC(CC)COC(=O)CC#N (centres undefined)
**A:** inactive

**Q:** Next entry: CCNC(=O)C(C)OC(=O)Nc1ccccc1 (centres undefined)
**A:** inactive

**Q:** Next entry: "CC(C)OC(=O)C(C(=O)OC(C)C)=C1SC=CS1"
**A:** inactive
